The entries below are paired with their reported log10 of ED50.
Test system: mice
Assay: Haffner test ("Tail clip test") in mice
Type: in vivo, mouse (male CD mice)
Conditions: Mus musculus, iv, 2 h; i.v., 120 min.; read-out: ED50 (Haffner test in mice)
Note: values are log10 of ED50 expressed in µmol/kg.

> print(dat)
                                   compound  endpoint.result
1  COC(=O)c1ccc(CO[C@H]2C=C[C@H]3[C@H]4Cc5ccc(O)c6c5[C@@]3(CCN4C)[C@H]2O6)cc1 [Example 5]            -2.02

Fill in the blank: the reported log10 of ED50 of CCOC(=O)CCCCCO[C@H]1C=C[C@H]2[C@H]3Cc4ccc(O)c5c4[C@@]2(CCN3C)[C@H]1O5 [Example 22] is ____.
-1.92

###

Test system: mice
Experiment: Haffner test ("Tail clip test") in mice
Type: in vivo, mouse (male CD mice)
Details: Mus musculus, iv, 0.5 h; i.v., 30 min.; read-out: ED50 (Haffner test in mice)
Procedure: METHOD: Haffner Test ("Tail clip test") in Mice The Haffner test is a standard procedure for determining the pain-inhibiting effect of powerful analgesics, mostly of the opioid type, in mice. […] Male CD mice (from Charles River, Sulzfeld, FRG) with an average weight of 30±5 grams were used. […] A 3.5 cm arterial clamp was placed about 2 cm from the base of the tail and the pain reaction time was measured in seconds. Any active attempt by the animal to remove the clamp was assessed as a pain reaction. […]
The entries below are paired with their reported ED50.
The response must be a number in µmol/kg with no trailing unit.

> print(dat)
                                   compound  outcome.measure  endpoint.result
1  COc1ccc(CCCC(=O)O[C@H]2C=C[C@H]3[C@H]4Cc5ccc(O)c6c5[C@@]3(CCN4C)[C@H]2O6)cc1 [Example 19]             ED50           0.0025
2  CCCC(COC1C=CC2C3Cc4ccc(O)c5c4C2(CCN3C)C1O5)OC(C)=O (stereo not shown) [Example 32]             ED50            0.003
3  CC(=O)OCCCO[C@H]1C=C[C@H]2[C@H]3Cc4ccc(O)c5c4[C@@]2(CCN3C)[C@H]1O5 [Example 38]             ED50           0.0019
4  COC(=O)c1ccc(CO[C@H]2C=C[C@H]3[C@H]4Cc5ccc(O)c6c5[C@@]3(CCN4C)[C@H]2O6)cc1 [Example 5]             ED50           0.0008
5  COC(=O)CCCCCCC(=O)O[C@H]1C=C[C@H]2[C@H]3Cc4ccc(O)c5c4[C@@]2(CCN3C)[C@H]1O5 [Example 22]             ED50           0.0033

Fill in the blank: the reported ED50 of CCOC(=O)CCCCO[C@H]1C=C[C@H]2[C@H]3Cc4ccc(O)c5c4[C@@]2(CCN3C)[C@H]1O5 [Example 25] is ____.
0.0057

Fill in the blank: the reported ED50 of COC(=O)CCCCC(=O)O[C@H]1C=C[C@H]2[C@H]3Cc4ccc(O)c5c4[C@@]2(CCN3C)[C@H]1O5 [Example 20] is ____.
0.0051

###

Tested on: mice
Assay: Haffner test ("Tail clip test") in mice
Type: in vivo, mouse (male CD mice)
Details: Mus musculus, iv, 2 h; i.v., 120 min.; read-out: ED50 (Haffner test in mice)
The entries below are paired with their reported log10 of ED50.
Note: values are log10 of ED50 expressed in µmol/kg.

> print(dat)
                                   molecule  experimental.target  endpoint.result
1  CN1CC[C@]23c4c5ccc(O)c4O[C@H]2[C@@H](OCCCCC#N)C=C[C@H]3[C@H]1C5                 mice            -1.42
2  COc1ccc(CCCC(=O)O[C@H]2C=C[C@H]3[C@H]4Cc5ccc(O)c6c5[C@@]3(CCN4C)[C@H]2O6)cc1                 mice            -2.25
3  COC(=O)CCCCCCC(=O)O[C@H]1C=C[C@H]2[C@H]3Cc4ccc(O)c5c4[C@@]2(CCN3C)[C@H]1O5                 mice            -1.66
4  CN1CC[C@]23c4c5ccc(O)c4O[C@H]2[C@@H](OCCCCOC(=O)C(C)(C)C)C=C[C@H]3[C@H]1C5                 mice            -1.54
5  CN1CC[C@]23c4c5ccc(O)c4O[C@H]2[C@@H](OC(=O)C(C)(O)C(F)(F)F)C=C[C@H]3[C@H]1C5 (stereo partly drawn)                 mice            -1.72

Read the next record carefully.
Fill in the blank: the reported log10 of ED50 of CN1CC[C@]23c4c5ccc(O)c4O[C@H]2[C@@H](O)CC[C@H]3[C@H]1C5 [7,8-Dihydromorphine.AcOH, reference compound] is ____.
-0.89

###

Test system: mice
Experiment: Haffner test ("Tail clip test") in mice
Type: in vivo, mouse (male CD mice)
Conditions: Mus musculus, iv, 2 h; i.v., 120 min.; read-out: ED50 (Haffner test in mice)
Threshold check on ED50: strictly below 0.02 µmol/kg is met; on or above 0.02 µmol/kg is not met.

Completed entries (count: 2):
> print(dat)
                                   compound  experimental.target  assigned.label
1  CCOC(=O)CCCCO[C@H]1C=C[C@H]2[C@H]3Cc4ccc(O)c5c4[C@@]2(CCN3C)[C@H]1O5 [Example 25]                 mice             met
2  CC(=O)OCCCO[C@H]1C=C[C@H]2[C@H]3Cc4ccc(O)c5c4[C@@]2(CCN3C)[C@H]1O5 [Example 38]                 mice         not met

ED50 under 0.02 µmol/kg? Item: CN1CC[C@]23c4c5ccc(O)c4O[C@H]2[C@@H](OCCCCOC(=O)c2ccccc2)C=C[C@H]3[C@H]1C5 [Example 4]
not met

ED50 under 0.02 µmol/kg? Item: COC(=O)CCCCC(=O)O[C@H]1C=C[C@H]2[C@H]3Cc4ccc(O)c5c4[C@@]2(CCN3C)[C@H]1O5 [Example 20]
met

ED50 under 0.02 µmol/kg? Item: CCCC(COC1C=CC2C3Cc4ccc(O)c5c4C2(CCN3C)C1O5)OC(C)=O (stereo not drawn) [Example 32]
not met

ED50 under 0.02 µmol/kg? Item: CCCC(O)CO[C@H]1C=C[C@H]2[C@H]3Cc4ccc(O)c5c4[C@@]2(CCN3C)[C@H]1O5 (stereo partly drawn) [Example 33]
not met
